Assignment: determine reported TGI for the given molecules.
tested on: HOP-62 NSCLC; test: NCI tumour cell line growth inhibition, 48 h

Entry `CC/C=C\C[C@H](O)C/C=C1/C(=O)C=C[C@@H]1C/C=C\CCCC(=O)N(C)C` : reported TGI = ? 8.35 µM

So what does the record say about TGI for CC(C)[C@@H]1CC[C@@H](C)C[C@H]1OC(=O)/C=C1/C2C=CC(O2)C1C(=O)O[C@@H]1C[C@H](C)CC[C@H]1C(C)C (some centres undefined) ? > 100 µM

Item CCCCCC(=O)N[C@@H](c1ccccc1)C(O)C(=O)OC1C[C@@]2(O)C(OC(=O)c3ccccc3)C3[C@](C)(C(=O)[C@H](O)C(=C1C)C2(C)C)C(OC1OCC(O)C(O)C1O)C[C@H]1OC[C@@]31OC(C)=O (some centres undefined) has what recorded TGI? > 75.8 µM

Consider the molecule `Nc1ccc2c(c1)NCCN2` and give its measured TGI. > 100 µM

Name the recorded TGI for `Cn1c(=O)c(Oc2ccccc2F)cc2cnc(NC3CCOCC3)nc21` . > 25 µM

Look up TGI for this molecule: CC(=O)N1CCc2c([nH]c3ccc(Br)cc23)C1c1ccccc1 (centres undefined) > 10 µM

Recorded TGI for `O=C(NCCCNc1cc(-c2cn(-c3ccccc3)nc2-c2cccc(O)c2)ccn1)c1ccccc1` , please? 14.1 µM

Give the measured TGI of `CC(C)c1ccc(C(=O)Nc2sc3c(c2C#N)CCC(=O)C3)cc1` . > 87.6 µM

Endpoint output: TGI of `NC(=O)c1nnc2cc(F)ccc2c1N` . Value? > 100 µM

Where these numbers come from: PubChem BioAssay (NCI)
